- System: CCRF-CEM
- Procedure Details: Cytoprotective activity against diethyl maleate-induced oxidative stress in human CCRF-CEM cells assessed as cell viability at 0.5 uM preincubated for 15 hrs prior to diethyl maleate-challenge measured after 6 hrs by hemocytometer-based assay
- Type: functional
Activity calls are given as the source filed them. The calls are words filed in the database; no cut-off is given here.
Metric Name: Activity

CCCCCCCCCCC1=C(C)C(=O)C(OC)=C(OC)C1=O [DECYLUBIQUINONE]    Active
CCCCCCCCCCc1nc(N(C)C)nc(C)c1O    Active
CCCCCCCCCCCCCCCCc1nc(N(C)C)nc(C)c1O    Active

###

- Organism: Bos taurus
- Procedure Details: Inhibition of NADH-ubiquinone oxidoreductase in bovine heart mitochondria after 5 mins by spectrophotometric analysis relative to control
For each of the molecules below, state its Imax.

// query Look at this molecule and give its reported Imax. Cc1nc(N(C)C)nc(CCCCCCCCCCO)c1O
// result 85%

// query Next: COC1=C(OC)C(=O)C(CCCCCCCCCCO)=C(C)C1=O [IDEBENONE]
// result 84%

// query Next: CCCCCCCCCCCCCCCCc1nc(N(C)C)nc(C)c1O
// result 84%

// query Next: CCCCCCCCCCc1nc(N(C)C)nc(C)c1O
// result 88%
